Each record here notes measured cAMP AlphaScreen, HEK293 cells stably expressing the receptor: agonist EC50.
Target: mouse melanocortin-3 receptor (mouse, UniProt P33033 1-323)
Sequence (P33033 whole entry): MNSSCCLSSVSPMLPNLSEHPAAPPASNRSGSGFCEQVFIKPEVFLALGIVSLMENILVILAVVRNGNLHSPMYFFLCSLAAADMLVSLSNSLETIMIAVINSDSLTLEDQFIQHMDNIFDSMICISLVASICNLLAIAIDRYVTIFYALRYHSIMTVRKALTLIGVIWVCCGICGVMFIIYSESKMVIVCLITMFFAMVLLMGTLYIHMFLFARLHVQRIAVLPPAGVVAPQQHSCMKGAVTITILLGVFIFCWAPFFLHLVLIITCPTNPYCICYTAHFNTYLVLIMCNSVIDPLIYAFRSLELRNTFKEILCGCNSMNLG
Experiment: cell-based or functional assay
Non-standard residues stand in square brackets, D forms with d. dPhe(4-I) = N[C@H](Cc1ccc(I)cc1)C(=O)O; d2Nal = N[C@H](Cc1ccc2ccccc2c1)C(=O)O; Bta = N[C@@H](Cc1csc2ccccc12)C(=O)O; Tic = O=C(O)[C@@H]1Cc2ccccc2CN1
// return numeric value only (unit: nM, not printed)

binder	reported.result
Ac-FR[dPhe(4-I)][Tic]-NH2 [compound 22]	610
Ac-RR[dPhe(4-I)][d2Nal]-NH2 [Ac-Arg-Arg-(pI)DPhe-DNal(2′)-NH2]	57
Ac-RR[dPhe(4-I)][Bta]-NH2 [compound 10]	160
Ac-[d2Nal]R[dPhe(4-I)][Tic]-NH2 [compound 24]	600

So, Ac-FR[dPhe(4-I)][Bta]-NH2 [compound 15] ? Its cAMP AlphaScreen, HEK293 cells stably expressing the receptor: agonist EC50 was 930

Memo: HRFX (HELM PEPTIDE1{[ac].H.R.[O=C([C@@H](Cc1ccc(I)cc1)N[*:1])[*:2]].[Tic].[am]}$$$$V2.0; SMILES CC(=O)N[C@@H](Cc1c[nH]cn1)C(=O)N[C@@H](CCCNC(=N)N)C(=O)N[C@H](Cc1ccc(I)cc1)C(=O)N1Cc2ccccc2C[C@H]1C(N)=O) [Ac-His-Arg-(pI)DPhe-Tic-NH2] , reported cAMP AlphaScreen, HEK293 cells stably expressing the receptor: agonist EC50: 40

Value of cAMP AlphaScreen, HEK293 cells stably expressing the receptor: agonist EC50 reported for the binder Ac-HR[dPhe(4-I)][Bta]-NH2 [compound 11] is 460
